- experiment-notes: Aqueous solubility (further tests)
- Assay type: physicochemical
- particulars: aqueous medium (not further specified)
value-type: solubility

{"compound": "CN(C)CC[N+](C)(C)CCCCCCOc1ccc(/C=C/c2ccc(OCCCCCC[N+](C)(C)CCN(C)C)cc2)cc1 [COE-D62N]", "value-type": "solubility", "observed-result": "> 200 µM"}

###

- System: Klebsiella pneumoniae MDR ATCC 700603
- experiment-notes: Single-dose growth inhibition, Kp
- Type: cell-based
- particulars: ATCC700603, read-out: Growth inhibition Kp
// values below are reported inhibition at 32 µg/mL

{"test-smiles": "C[N+](C)(C)CCCCOc1ccc(/C=C/c2ccc(OCCCC[N+](C)(C)C)cc2)cc1", "target-under-test": "Klebsiella pneumoniae MDR ATCC 700603", "inhibition at 32 µg/mL": "< 50%"}
{"test-smiles": "C[N+](C)(C)CCCCCCOc1ccc(/C=C/c2ccc(OCCCCCC[N+](C)(C)C)cc2)cc1", "target-under-test": "Klebsiella pneumoniae MDR ATCC 700603", "inhibition at 32 µg/mL": "< 50%"}
{"test-smiles": "C[N+](C)(C)CC[N+](C)(C)CCCCOc1ccc(/C=C/c2ccc(OCCCC[N+](C)(C)CC[N+](C)(C)C)cc2)cc1", "target-under-test": "Klebsiella pneumoniae MDR ATCC 700603", "inhibition at 32 µg/mL": "< 50%"}
{"test-smiles": "C[N+](C)(C)CCCCCCCCOc1ccc(/C=C/c2ccc(OCCCCCCCC[N+](C)(C)C)cc2)cc1", "target-under-test": "Klebsiella pneumoniae MDR ATCC 700603", "inhibition at 32 µg/mL": "50 to 80%"}

###

// values below are reported solubility
- experiment-notes: Solubility in PBS / aqueous solubility
- Type: physicochemical
- particulars: PBS (aqueous solubility); read-out: aqueous solubility

{"compound": "C[N+](C)(C)CCCCCCOc1ccc(/C=C/c2ccc(OCCCCCC[N+](C)(C)C)cc2)cc1", "comparison-sign": "=", "solubility [µg/mL]": 240}
{"compound": "CN(C)CC[N+](C)(C)CCCCCCOc1ccc(/C=C/c2ccc(OCCCCCC[N+](C)(C)CCN(C)C)cc2)cc1 [COE-D62N]", "comparison-sign": ">", "solubility [µg/mL]": 4000}

###

// values below are reported inhibition at 32 µg/mL
- Test system: Klebsiella pneumoniae MDR ATCC 700603
- experiment-notes: Single-dose growth inhibition, Kp
- Assay type: cell-based
- particulars: ATCC700603, 32 μg/mL single dose, n=2, read-out: Growth inhibition Kp
- Description: Inhibition of bacterial growth was determined by measuring the absorbance at 600 nm (OD600), using a Tecan M1000 Pro monochromator plate reader. Growth inhibition was calculated for each well, relative to the reference growths determined from a negative control (media only) and positive control (bacteria without inhibitors) incubated in the same plate. A single dose of 32 μg/mL of COE (final concentration) was used for each test. […]

{"compound": "CN(C)CC[N+](C)(C)CCCCCCCCOc1ccc(/C=C/c2ccc(OCCCCCCCC[N+](C)(C)CCN(C)C)cc2)cc1 [COE-D82N]", "inhibition at 32 µg/mL": "> 80%"}
{"compound": "C[N+](C)(C)CCCCOc1ccc(/C=C/c2ccc(/C=C/c3ccc(OCCCC[N+](C)(C)C)cc3)cc2)cc1 [COE-T4]", "inhibition at 32 µg/mL": "< 50%"}
{"compound": "C[N+](C)(C)CCCCCCOc1ccc(/C=C/c2ccc(/C=C/c3ccc(OCCCCCC[N+](C)(C)C)cc3)cc2)cc1 [COE-T6]", "inhibition at 32 µg/mL": "< 50%"}

All figures here come from patent US12157713B2.
